Readings of pIC50 for the listed compounds
system under test: Genome polyprotein (Hepatitis C virus genotype 1a (isolate 1) (HCV), UniProt P26664)
Sequence (P26664 1027-1657 limits assumed): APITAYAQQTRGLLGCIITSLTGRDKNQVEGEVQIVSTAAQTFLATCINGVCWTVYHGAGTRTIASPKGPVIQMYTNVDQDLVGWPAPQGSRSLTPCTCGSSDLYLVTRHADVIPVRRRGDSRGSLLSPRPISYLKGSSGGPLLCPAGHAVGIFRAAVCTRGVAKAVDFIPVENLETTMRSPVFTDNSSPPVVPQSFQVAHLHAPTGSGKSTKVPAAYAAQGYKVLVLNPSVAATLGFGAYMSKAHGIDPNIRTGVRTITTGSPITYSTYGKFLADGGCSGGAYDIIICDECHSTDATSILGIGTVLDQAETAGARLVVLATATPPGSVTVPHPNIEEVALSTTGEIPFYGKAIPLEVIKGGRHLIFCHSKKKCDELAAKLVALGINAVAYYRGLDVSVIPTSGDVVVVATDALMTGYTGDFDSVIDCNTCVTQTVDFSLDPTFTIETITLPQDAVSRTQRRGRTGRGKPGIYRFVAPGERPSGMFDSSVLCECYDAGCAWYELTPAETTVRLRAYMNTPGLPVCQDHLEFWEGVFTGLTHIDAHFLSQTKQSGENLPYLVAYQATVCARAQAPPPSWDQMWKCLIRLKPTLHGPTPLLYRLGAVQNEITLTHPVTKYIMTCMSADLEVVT
Sequence (P26664 1658-1711 limits assumed): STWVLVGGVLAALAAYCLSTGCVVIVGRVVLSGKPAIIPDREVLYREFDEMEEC
protocol: Inhibition to hepatitis C virus (HCV) NS3/NS4A serine protease
# pIC50: negative log10 of molar concentration; output just the value

{"compound": "CCC(C)[C@H](NC(=O)OCc1ccc(C(=O)OC)cc1)C(=O)N[C@@H](CC(C)C)C(=O)N[C@@H](CC(F)F)C(=O)C(=O)O (stereo not given in full)", "system under test": "Genome polyprotein (Hepatitis C virus genotype 1a (isolate 1) (HCV), UniProt P26664)", "val": 5.77}
{"compound": "CC[C@H](C)[C@H](NC(=O)OCc1ccccc1)C(=O)N[C@@H](CC1CCCCC1)C(=O)N[C@@H](CC(F)F)C(=O)C(=O)O", "system under test": "Genome polyprotein (Hepatitis C virus genotype 1a (isolate 1) (HCV), UniProt P26664)", "val": 5.85}
{"compound": "CCC(C)[C@H](NC(=O)NCc1ccccc1)C(=O)N[C@@H](CC(C)C)C(=O)N[C@@H](CC(F)F)C(=O)C(=O)O (stereo not given in full)", "system under test": "Genome polyprotein (Hepatitis C virus genotype 1a (isolate 1) (HCV), UniProt P26664)", "val": 5.48}
{"compound": "CCC(C)[C@H](NC(=O)OCc1ccc(C(=O)O)cc1)C(=O)N[C@@H](CC(C)C)C(=O)N[C@@H](CC(F)F)C(=O)C(=O)O (stereo not given in full)", "system under test": "Genome polyprotein (Hepatitis C virus genotype 1a (isolate 1) (HCV), UniProt P26664)", "val": 6.36}

Next item in the queue.
# pIC50 (compound: CC(C)(C)OC(=O)N[C@@H](CCC(=O)O)C(=O)N[C@@H](CC(F)F)C(=O)N[C@@H](CC(F)F)C(=O)C(=O)O ) is 6.52
